Property: IC50; scope: individual compounds
# TARGET_ENTITY: PI3K delta (Homo sapiens, UniProt O00329)
# Sequence (O00329 whole entry, species assumed): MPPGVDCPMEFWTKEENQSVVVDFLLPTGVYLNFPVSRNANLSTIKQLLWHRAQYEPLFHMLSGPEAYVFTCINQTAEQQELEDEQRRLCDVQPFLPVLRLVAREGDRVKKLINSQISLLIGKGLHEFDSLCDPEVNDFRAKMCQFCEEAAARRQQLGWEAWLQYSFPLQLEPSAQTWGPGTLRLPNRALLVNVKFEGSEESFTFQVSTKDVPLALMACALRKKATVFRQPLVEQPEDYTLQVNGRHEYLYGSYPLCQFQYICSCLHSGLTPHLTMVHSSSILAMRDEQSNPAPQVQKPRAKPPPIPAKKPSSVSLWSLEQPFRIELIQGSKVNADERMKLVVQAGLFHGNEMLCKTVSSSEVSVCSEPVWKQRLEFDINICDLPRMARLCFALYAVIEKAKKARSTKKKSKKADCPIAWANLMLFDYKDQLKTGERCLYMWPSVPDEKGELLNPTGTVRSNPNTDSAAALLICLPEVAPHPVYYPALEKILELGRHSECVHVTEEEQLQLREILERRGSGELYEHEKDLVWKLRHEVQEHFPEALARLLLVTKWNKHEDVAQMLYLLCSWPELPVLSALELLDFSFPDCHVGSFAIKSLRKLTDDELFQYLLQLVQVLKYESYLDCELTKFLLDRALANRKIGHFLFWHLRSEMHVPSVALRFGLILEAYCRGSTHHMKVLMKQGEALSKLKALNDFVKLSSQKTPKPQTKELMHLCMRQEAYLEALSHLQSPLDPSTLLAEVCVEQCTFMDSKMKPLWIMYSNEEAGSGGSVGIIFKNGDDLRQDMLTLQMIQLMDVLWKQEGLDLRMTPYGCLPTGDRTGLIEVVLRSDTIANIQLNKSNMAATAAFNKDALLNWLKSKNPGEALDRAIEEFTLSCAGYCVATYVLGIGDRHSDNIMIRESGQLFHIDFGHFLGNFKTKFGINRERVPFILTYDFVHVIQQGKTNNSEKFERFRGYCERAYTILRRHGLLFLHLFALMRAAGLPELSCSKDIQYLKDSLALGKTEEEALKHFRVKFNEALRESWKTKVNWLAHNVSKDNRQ
# Sequence (P27986 whole entry partner, species assumed): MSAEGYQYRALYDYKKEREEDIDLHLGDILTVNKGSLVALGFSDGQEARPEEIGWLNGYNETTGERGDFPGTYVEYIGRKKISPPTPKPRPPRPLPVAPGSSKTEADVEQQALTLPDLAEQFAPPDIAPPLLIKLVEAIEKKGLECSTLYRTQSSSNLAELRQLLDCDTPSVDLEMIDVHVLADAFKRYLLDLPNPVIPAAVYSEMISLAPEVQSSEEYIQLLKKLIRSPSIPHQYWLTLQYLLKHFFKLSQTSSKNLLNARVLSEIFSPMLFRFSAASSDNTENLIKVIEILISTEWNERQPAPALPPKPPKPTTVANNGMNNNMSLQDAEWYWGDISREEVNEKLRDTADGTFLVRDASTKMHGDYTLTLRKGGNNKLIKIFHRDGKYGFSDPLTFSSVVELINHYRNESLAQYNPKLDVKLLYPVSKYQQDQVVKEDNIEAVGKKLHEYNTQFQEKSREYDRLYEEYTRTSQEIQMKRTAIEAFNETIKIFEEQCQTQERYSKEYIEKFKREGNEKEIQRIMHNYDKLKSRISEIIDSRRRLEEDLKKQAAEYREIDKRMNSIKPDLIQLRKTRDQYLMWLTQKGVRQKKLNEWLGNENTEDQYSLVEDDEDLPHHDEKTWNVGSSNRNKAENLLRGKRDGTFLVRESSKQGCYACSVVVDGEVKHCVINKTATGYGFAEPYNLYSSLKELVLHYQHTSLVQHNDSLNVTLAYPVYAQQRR
# METHOD_NOTES: Luciferase-based luminescence assay (KinaseGlo), PI3K delta enzymatic activity
# MEASUREMENT_SETUP: inhibition of enzymatic activity, KinaseGlo, 25 μM ATP; read-out: IC50 p110δ
# Procedure: PI3K catalyzes the conversion of phosphatidylinositol-4,5-bisphosphate (PIP2) and ATP to phosphatidylinositol-3,4,5-trisphosphate (PIP3) and ADP. […] PI3K alpha and PI3K delta enzymatic activity was determined by measuring the amount of ATP consumed following the kinase reaction using a luciferase-based luminescence assay (KinaseGlo®, Promega Corp., Madison, WI, USA). […] IC50 values were determined by curve fitting using Graphpad Prism software (Graphpad Software, La Jolla, CA, USA).

Examples with their reported IC50 follow.
{"columns": ["STRUCTURE_AS_SMILES", "IC50"],
 "data": [
  ["Cn1cc(-c2ccccc2CC(C)(C)Nc2nc(N3CCOCC3)nc(-n3c(C(F)F)nc4ccccc43)n2)cn1", "≤ 100 nM"],
  ["CC(C)(Cc1ccccc1-c1cccc(CN2CCOCC2)c1)Nc1nc(N2CCOCC2)nc(-n2c(C(F)F)nc3ccccc32)n1", "≤ 100 nM"]
]}

## Task Provide one value: measured IC50 of "CC(C)(Cc1ccc2ccccc2c1)Nc1nc(N2CCOCC2)nc(-n2c(C(F)F)nc3ccccc32)n1"
## Result 100 to 200 nM

## Task Provide one value: measured IC50 of "CC(C)(Nc1nc(N2CCOCC2)nc(-n2c(C(F)F)nc3ccccc32)n1)c1ccc(Cl)cc1"
## Result > 500 nM
